Where do the numbers come from? From patent US10385085B2.

assayText: Approximate solvent solubility screen (aliquot addition)
Assay type: physicochemical
recordedConditions: 40 °C, organic solvent or mixture, thermodynamic from solid; solvent: Methylisobutyl ketone
propertyLabel: solubility

Look up solubility for this molecule: CC(=O)N[C@H]1[C@H]([C@H](O)[C@H](O)CO)OC(O)(C(=O)O)C[C@@H]1O (stereo partly shown)
< 6300 µg/mL

---

assayText: Approximate solvent solubility screen (aliquot addition)
Assay type: physicochemical
recordedConditions: 40 °C, organic solvent or mixture, thermodynamic from solid; solvent: Tetrahydrofuran
propertyLabel: solubility

Look up solubility for this compound: CC(=O)N[C@H]1[C@H]([C@H](O)[C@H](O)CO)OC(O)(C(=O)O)C[C@@H]1O (stereo partly shown) [Sialic acid, N-acetylneuraminic acid]
< 5300 µg/mL
